Each recorded value in this set is attributed to ChEMBL document CHEMBL3046572.

Catalogue of MIC readings, one per entry.
Test system: Escherichia coli
Assay summary: Antibacterial activity against Escherichia coli assessed as growth inhibition after 18 hr by broth microdilution method
Type: functional

Compound string	MIC / µg/mL
CCN(CC)c1ccc2cc(-c3nc4sc(S(N)(=O)=O)nn4c3Br)c(=O)oc2c1	16
CCN(CC)c1ccc2cc(-c3nc4sc(S(N)(=O)=O)nn4c3N=O)c(=O)oc2c1	31.2
CCN(CC)c1ccc2cc(-c3cn4nc(S(N)(=O)=O)sc4n3)c(=O)oc2c1	31.2
CCN(CC)c1ccc2cc(-c3nc4sc(S(=O)(=O)/N=C/N(C)C)nn4c3C#N)c(=O)oc2c1	16
CCN(CC)c1ccc2cc(-c3nc4sc(S(N)(=O)=O)nn4c3SC#N)c(=O)oc2c1	31.2
CCN(CC)c1ccc2cc(-c3nc4sc(S(=O)(=O)/N=C/N(C)C)nn4c3CO)c(=O)oc2c1	8

###

Test system: Escherichia coli
Assay summary: Antibacterial activity against Escherichia coli assessed as growth inhibition after 18 hr by broth microdilution method
Assay type: functional
Experimental endpoint: log10(MIC) (log10 of the value in µg/mL)

Compound	Experimental endpoint	Quantitative result
CCN(CC)c1ccc2cc(-c3nc4sc(S(N)(=O)=O)nn4c3CN3CCCCC3)c(=O)oc2c1	log10(MIC)	1.49
CCN(CC)c1ccc2cc(-c3nc4sc(S(=O)(=O)/N=C/N(C)C)nn4c3/C=N/O)c(=O)oc2c1	log10(MIC)	1.20
CCN(CC)c1ccc2cc(-c3nc4sc(S(=O)(=O)/N=C/N(C)C)nn4c3C=O)c(=O)oc2c1	log10(MIC)	0.60
CCN(CC)c1ccc2cc(-c3nc4sc(S(=O)(=O)/N=C/N(C)C)nn4c3/C=N/NC(=N)N)c(=O)oc2c1	log10(MIC)	0.00
CCN(CC)c1ccc2cc(-c3nc4sc(S(=O)(=O)/N=C/N(C)C)nn4c3C3SCC(=O)N3c3ccccc3)c(=O)oc2c1 (stereo not drawn)	log10(MIC)	0.00
CCn1cc(C(=O)O)c(=O)c2cc(F)c(N3CCNCC3)cc21	log10(MIC)	1.20
CCN(CC)c1ccc2cc(-c3nc4sc(S(N)(=O)=O)nn4c3CN3CCCC3)c(=O)oc2c1	log10(MIC)	0.90
CCN(CC)c1ccc2cc(-c3nc4sc(S(N)(=O)=O)nn4c3CN3CCOCC3)c(=O)oc2c1	log10(MIC)	1.49
